test: Quantitative High-Throughput drug screen in 47 multiple myeloma cell lines against the NCATS MIPE library collection: NCIH929_DSMZ cell viability assay (AID 1918978); conditions: NCI-H929 myeloma viability, CellTiter-Glo ATP, 48 h; series mostly up to 45.8 µM; also: nearly all actives have a fitted effect of over 35% in size; also: potency is read from the fitted curve at half-maximal effect
Results filed as inconclusive are left out. Active and inactive are the calls of the source. Calls follow the shape of the dose curve; as a rule, active = well fitted cell-killing curve with a large enough effect; inconclusive = small, poorly fitted or top-dose-only effect; inactive = no such curve, though single readings can be large or run the other way.
reported.metric: Potency

Consider the reported Potency for these molecules:
molecule: CC[C@H]1OC(=O)[C@H](C)[C@@H](O[C@H]2C[C@@](C)(OC)[C@@H](O)[C@H](C)O2)[C@H](C)[C@@H](O[C@@H]2O[C@@H](C)C[C@H](N(C)C)[C@@H]2O)[C@](C)(O)C[C@@H](C)C(=O)[C@H](C)[C@@H](O)[C@]1(C)O
Potency: inactive
--
molecule: CC(=O)NC(CS)C(=O)O (stereo unspecified)
Potency: inactive
--
molecule: C=C(C)[C@@H]1CC[C@]2(C(=O)O)CC[C@]3(C)[C@H](CC[C@@H]4[C@@]5(C)CC[C@H](O)C(C)(C)[C@@H]5CC[C@]43C)[C@@H]12
Potency: inactive
--
molecule: COc1cc2c(cc1OC)[C@@H]1C(=O)c3ccc4c(c3O[C@@H]1CO2)C=CC(C)(C)O4
Potency: 662 nM (active)
--
molecule: COc1ccc(S(=O)(=O)Nc2cc(-c3c(O)ccc4ccccc34)c(O)c3ccccc23)cc1
Potency: 3320 nM (active)
--
molecule: CCC(C=C[C@@H]1OC(=O)C=C[C@H]1C)=C[C@H](C)CC=CC(C)=C[C@@H](C)C(=O)[C@@H](C)[C@H](O)[C@@H](C)CC(C)=CC(=O)O
Potency: 19.6 nM (active)
--
molecule: CCOc1cc2c(c(F)c1OCC)C(=N)N(CC(=O)c1cc(N3CCOCC3)c(OC)c(C(C)(C)C)c1)C2
Potency: 14800 nM (active)
--
molecule: CCCCCCCCCCCC(CC1OC(=O)C1CCCCCC)OC(=O)C(CC(C)C)NC=O (stereo unspecified)
Potency: inactive

Asked: # input molecule: COc1cc([C@@H]2c3cc4c(cc3[C@H](O)[C@H]3COC(=O)[C@@H]23)OCO4)cc(OC)c1OC ; wanted: its Potency
Given back: 590 nM (active)
